These data points were gathered from PubChem BioAssay (NCI).

Tested on: RPMI-8226 leukemia
assaySummary: NCI tumour cell line growth inhibition, 48 h
Consider the following molecules and their measured TGI readings.
Please state the figure in µM; there is no need to write the unit.

QUERY: So what's the measured TGI for this one? OC1(c2ccc(Cl)cc2)c2ccc3ccccc3c2C2=N[C@H]3CCCC[C@@H]3N21 (stereo not given in full)
RESULT: 31

QUERY: Now the same for O=C(N/N=C/c1ccco1)c1cc(I)cc(I)c1O
RESULT: 43

* * *

Tested on: CCRF-CEM leukemia
assaySummary: NCI tumour cell line growth inhibition, 48 h
parameterMeasured: TGI

>  <compound>
C[C@@H]1OC(O)[C@@H](F)[C@H](O)[C@@H]1O (some centres undefined)

>  <TGI>
> 100 µM

$$$$
>  <compound>
CCC(C(=O)c1ccc(OC)c(OC)c1)N(C(=O)C(F)(F)F)C(C)c1ccccc1 (centres undefined)

>  <TGI>
> 100 µM

$$$$
>  <compound>
O=C1Nc2c(C(F)(F)F)cccc2[C@]1(c1ccc(O)cc1)c1ccc(OC(F)(F)F)cc1

>  <TGI>
49.9 µM

$$$$
>  <compound>
CCNC(=O)C1CCCN1C(=O)C(CCCN=C(N)N)NC(=O)C(CC(C)C)NC(=O)C(Cc1c[nH]c2ccccc12)NC(=O)C(Cc1ccc(O)cc1)NC(=O)C(CO)NC(=O)C(Cc1c[nH]c2ccccc12)NC(=O)C(Cc1cnc[nH]1)NC(=O)C1CCC(=O)N1 (centres undefined)

>  <TGI>
> 100 µM

$$$$
>  <compound>
c1ccc2c3c(c(N4CCOCC4)nc2c1)CCCC3

>  <TGI>
> 100 µM

$$$$

QUERY: So what's the measured TGI for this one? NC(CCC(=O)NC(CSSCCCCS(=O)O)C(=O)NCC(=O)O)C(=O)O (centres undefined)
RESULT: > 100 µM

* * *

Test system: MDA-MB-231 breast
assaySummary: NCI tumour cell line growth inhibition, 48 h
Consider the following molecules and their measured TGI readings.

Worked examples follow.
>  <molecule>
COc1ccc(-c2cc(=O)c3c(OC)c(OC)c(OC)cc3o2)cc1

>  <TGI>
> 100 µM

$$$$
>  <molecule>
COCc1nc2c(OC)cc(-c3nc4ccc(N5CCN(C)CC5)cc4[nH]3)c(OC)c2[nH]1

>  <TGI>
> 100 µM

$$$$
>  <molecule>
CC1(C)OCC2OC3([C@H]4OC(C)(C)O[C@@H]4CO)OC(C)(C)OC3C2O1 (stereo partly specified)

>  <TGI>
> 100 µM

$$$$

QUERY: So what's the measured TGI for this one? COc1cc(C2=C(c3ccccc3)COC2=O)cc(OC)c1OC
RESULT: > 100 µM

QUERY: Now the same for CN(C)S(=O)(=O)Nc1nnc(S(N)(=O)=O)s1
RESULT: > 100 µM

QUERY: Now the same for Cn1c([O-])nc(-n2cc[n+](C)c2)cc1=O
RESULT: > 100 µM

QUERY: Now the same for CNC(=O)N(CCC#N)[C@H]1CCCC[C@@H]1N(C(=O)NC)c1ccccc1
RESULT: > 100 µM

QUERY: Now the same for Cc1cn([C@@H]2C[C@H]2CO)c(=O)[nH]c1=O
RESULT: > 100 µM

QUERY: Now the same for OCc1c[nH]c2ccccc12
RESULT: 47.7 µM

QUERY: Now the same for Cc1cc2ncc3c(=O)n(NS(=O)(=O)c4ccc(N)cc4)ccc3n2n1
RESULT: > 100 µM

QUERY: Now the same for C=C1C(=O)O[C@H]2[C@H]1CC/C(COC(=O)c1ccc3ccccc3c1)=C\CC[C@@]1(C)O[C@@H]21
RESULT: 3 µM

* * *

Tested on: A498 renal
assaySummary: NCI tumour cell line growth inhibition, 48 h
parameterMeasured: TGI

Worked examples follow.
>  <compound>
C=c1c(OC)c(OC)c(O)c2c1=c1cc([N+](=O)[O-])cc(OC)c1=N2

>  <TGI>
> 100 µM

$$$$
>  <compound>
O=c1/c(=C/c2ccco2)sc2nc3ccccc3n12

>  <TGI>
> 100 µM

$$$$
>  <compound>
CCOc1cc2c(Cl)ncnc2c(OCC)c1OCC

>  <TGI>
19.1 µM

$$$$
>  <compound>
COC12C=C(C)C(CC1)CC2C(=O)O (stereo unspecified)

>  <TGI>
> 100 µM

$$$$
>  <compound>
COc1cc(/C=C\C(=O)O)ccc1OCc1ccccc1

>  <TGI>
> 100 µM

$$$$
>  <compound>
COC(=O)c1c/c(=N\NC(=O)CC(=O)Nc2ccccc2OC)c2ccccc2o1

>  <TGI>
> 100 µM

$$$$
>  <compound>
C=CCOCCCCC(C(C)=O)C(=O)OC (stereo unspecified)

>  <TGI>
> 100 µM

$$$$
>  <compound>
C[C@]12CC[C@H]3[C@@H](CC=C4C[C@@H](O)CC[C@@]43C)[C@@H]1CC[C@@H]2N(CCO)CCO

>  <TGI>
73 µM

$$$$

QUERY: So what's the measured TGI for this one? Cc1cn(C(C)OCCN2C(=O)c3ccccc3C2=O)c(=O)[nH]c1=O (stereo unspecified)
RESULT: > 100 µM

QUERY: Now the same for COC(=O)Cc1c([C@H]2[C@H](CC(=O)OC)c3ccccc3N2C(C)=O)[nH]c2ccccc12
RESULT: > 100 µM

QUERY: Now the same for CN1CCN(C)C12C=c1ccccc1=CC21CC1
RESULT: > 100 µM

* * *

System: OVCAR-5 ovarian
assaySummary: NCI tumour cell line growth inhibition, 48 h
Consider the following compounds and their measured TGI readings.

Worked examples follow.
>  <compound>
Oc1ccc(CN2CCC(N3CCCCC3)CC2)c2cccnc12

>  <targetEntity>
OVCAR-5 ovarian

>  <result>
> 100 µM

$$$$
>  <compound>
CCC(=O)Oc1c2ccsc2c(OC(=O)CC)c2ccsc12

>  <targetEntity>
OVCAR-5 ovarian

>  <result>
3.35 µM

$$$$

QUERY: So what's the measured TGI for this one? NC(CCC(=O)NC(CSSCCCCS(=O)O)C(=O)NCC(=O)O)C(=O)O (stereo not drawn)
RESULT: > 100 µM

* * *

Consider the following compounds and their measured TGI readings.
Tested on: OVCAR-3 ovarian
assaySummary: NCI tumour cell line growth inhibition, 48 h
Please state the figure in µM; there is no need to write the unit.

QUERY: So what's the measured TGI for this one? COc1ccc(-c2cnnc3c(-c4cccc(C(F)(F)F)c4)cnn23)cc1
RESULT: 6.45

QUERY: Now the same for O=C1CCCCN1CCCCC#Cc1ccccc1C#Cc1ccc([N+](=O)[O-])cc1
RESULT: 23.6

QUERY: Now the same for CCOC(=O)/C(C#N)=N\Nc1ccc(-n2c(C)nc3ccccc3c2=O)cc1
RESULT: 82.4

* * *

Tested on: NCI-H226 lung
assaySummary: NCI tumour cell line growth inhibition, 48 h
parameterMeasured: GI50

>  <molecule>
CC[CH2][Sn]([CH2]CC)([O]C(=O)c1cccnc1SC)[O][Sn]([CH2]CC)([CH2]CC)[O]C(=O)c1cccnc1SC

>  <GI50>
0.614 µM

$$$$
>  <molecule>
Oc1ccc2ccccc2c1N=Nc1nccs1

>  <GI50>
2.75 µM

$$$$
>  <molecule>
CS(=O)(=O)c1ccc([C@H]2O[C@@H](CO)C[C@]2(O)c2ccc(S(C)(=O)=O)cc2)cc1

>  <GI50>
> 100 µM

$$$$
>  <molecule>
N#Cc1c(-c2ccc(F)cc2)nc(N/N=C/c2c[nH]c3ccccc23)nc1N1CCOCC1

>  <GI50>
24.2 µM

$$$$
>  <molecule>
OCC(O)CC[CH2][Sn]([Br])([c]1ccccc1)[c]1ccccc1 (centres undefined)

>  <GI50>
> 100 µM

$$$$

QUERY: So what's the measured GI50 for this one? CC(C)(C)OC(=O)N1CCc2c(sc3ncnc(N/N=C/c4cccc5ccccc45)c23)C1
RESULT: 5.29 µM

QUERY: Now the same for CCOC(=O)[C]1([Bi]([CH3])[CH3])N=NC(C(=O)OC)=C1C(=O)OC (centres undefined)
RESULT: 20.6 µM

QUERY: Now the same for O=C1Nc2c(C(F)(F)F)cccc2[C@]1(c1ccc(O)cc1)c1ccc(OC(F)(F)F)cc1
RESULT: 11.6 µM

QUERY: Now the same for COC(=O)[C@]12CC[C@@H](C)[C@H](C)[C@@H]1C1=CC[C@@H]3[C@@]4(C)C/C(=N\O)[C@H](O)[C@@]5(C)COC(=C45)C[C@@]3(C)[C@]1(C)CC2
RESULT: 14.8 µM

* * *

Consider the following molecules and their measured TGI readings.
Tested on: KM12 colon
assaySummary: NCI tumour cell line growth inhibition, 48 h

>  <molecule>
Cc1cc2c(cc1C)[n+](=O)c(C(=O)C/C(=N/NC(=O)CC#N)C(=O)Nc1ccccc1C(F)(F)F)c(C)n2[O-]

>  <targetEntity>
KM12 colon

>  <result>
> 100 µM

$$$$

QUERY: Requested read-out TGI, target or system KM12 colon, entry OC1(c2ccc(Cl)cc2)c2ccc3ccccc3c2C2=N[C@H]3CCCC[C@@H]3N21 (some centres not stated)
RESULT: > 100 µM

QUERY: Now the same for CSc1nc2c(c(=O)n1C)N=C(c1ccccc1)[C@H](C(CC(=O)c1ccccc1)c1ccccc1)C(c1ccccc1)N2 (some centres not stated)
RESULT: > 100 µM
